pIC50: −log10 of the molar value. Where a name gives a salt, the structure may show the parent alone.
Here we list compounds with their recorded pIC50 when tested on JAK3 (a.a. 781-1124) (Homo sapiens (Human), UniProt P52333).
Sequence (P52333 781-1124): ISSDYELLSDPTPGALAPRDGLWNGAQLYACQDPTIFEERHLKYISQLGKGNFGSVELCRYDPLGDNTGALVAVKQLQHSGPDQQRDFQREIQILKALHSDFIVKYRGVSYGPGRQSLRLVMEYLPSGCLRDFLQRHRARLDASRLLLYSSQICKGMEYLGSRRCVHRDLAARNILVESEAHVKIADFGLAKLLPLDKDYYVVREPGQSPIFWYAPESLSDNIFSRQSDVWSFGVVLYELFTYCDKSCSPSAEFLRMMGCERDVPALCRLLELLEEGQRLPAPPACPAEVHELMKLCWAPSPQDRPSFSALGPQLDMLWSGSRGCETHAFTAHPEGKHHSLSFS

# compound, pIC50
measured = [
    ("CCOC(=O)c1cnc2[nH]ccc2c1N[C@@H]1CCC[C@H](CCC#N)C1 (single isomer, unassigned; enantiomer 2) [Example 136]", "7.00 to 8.00"),
    ("CCOC(=O)c1cnc2[nH]ccc2c1N[C@@H]1CC[C@H](C)N(C(=O)CC#N)C1 [Example 146]", "≥ 8.00"),
    ("CCOC(=O)c1cnc2[nH]ccc2c1N[C@H]1CC[C@H](CS(=O)(=O)NC)CC1 [Example 92]", "≥ 8.00"),
    ("CCOC(=O)c1cnc2[nH]ccc2c1N[C@H]1CN(C(=O)C(C)C#N)CC[C@H]1C (stereo partly drawn) [Example 127]", "7.00 to 8.00"),
    ("CCOC(=O)c1cnc2[nH]ccc2c1N[C@H]1CCC[C@H](CCC#N)C1 (single isomer, unassigned; enantiomer 2) [Example 138]", "≥ 8.00"),
    ("COCCOC(=O)c1cnc2[nH]ccc2c1N[C@@H]1CCCN(C(=O)CC#N)C1 [Example 131]", "7.00 to 8.00"),
    ("CCOC(=O)c1cnc2[nH]ccc2c1N(C)[C@H]1CN(C(=O)CC#N)CC[C@H]1C [Example 1]", "7.00 to 8.00"),
    ("CC(C)OC(=O)c1cnc2[nH]ccc2c1N[C@H]1CN(C(=O)CC#N)CC[C@H]1C [Example 124]", "7.00 to 8.00"),
    ("CCOC(=O)c1cnc2[nH]ccc2c1N[C@H]1CCCN(C(=O)CC#N)C1 [Example 143]", "7.00 to 8.00"),
    ("CCCOC(=O)c1cnc2[nH]ccc2c1N[C@H]1CCC[C@H](CCC#N)C1 (racemic) [Example 140]", "≥ 8.00"),
    ("CCOC(=O)c1cnc2[nH]ccc2c1NC1CCC(O)C(CC#N)C1 (stereo not drawn) [Example 142]", "7.00 to 8.00"),
    ("CCOC(=O)c1cnc2[nH]ccc2c1N(C)[C@H]1CC[C@H](O)C1 (single isomer, unassigned) [Example 68A]", "6.00 to 7.00"),
    ("CCCOC(=O)c1cnc2[nH]ccc2c1N[C@H]1CCC[C@@H](CCC#N)C1 (racemic) [Example 139]", "≥ 8.00"),
    ("C[C@@H]1CCN(C(=O)CC#N)C[C@@H]1Nc1c(C(=O)O)cnc2[nH]ccc12 [Example 120, trifluoroacetic acid Salt]", "6.00 to 7.00"),
    ("CCOC(=O)c1cnc2[nH]ccc2c1N[C@@H]1CCC[C@@H](CCC#N)C1 (single isomer, unassigned; enantiomer 1) [Example 137]", "≥ 8.00"),
]
